B1: library; a variant is named by its letters at N, in order (parent)
chain: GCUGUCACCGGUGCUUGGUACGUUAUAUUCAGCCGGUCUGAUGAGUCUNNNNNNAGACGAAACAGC

# Variants of: B1
# MEASUREMENT PROTOCOL: FACS-Seq fitted mean relative fluorescence mCherry/BFP with ligand (log10 relative fluorescence); HEK293T overexpressing SLC46A1; ligand concentration (+) FACS-Seq: 6 mM; higher = higher reporter protein expression
# CONDITION: with (6R,S)-folinic acid; ligand present: yes
Quick reference: FACS-Seq fitted mean (log10) of the listed items.
Lab note: jot the number down without any unit.

GCUGUCACCGGUGCUUGGUACGUUAUAUUCAGCCGGUCUGAUGAGUCUCAGUUCAGACGAAACAGC = -0.16

IN: So what's the measured FACS-Seq fitted mean (log10) for this one? GCUGUCACCGGUGCUUGGUACGUUAUAUUCAGCCGGUCUGAUGAGUCUGUACGAAGACGAAACAGC
OUT: 0.139

IN: What do we get for GCUGUCACCGGUGCUUGGUACGUUAUAUUCAGCCGGUCUGAUGAGUCUACGACAAGACGAAACAGC ?
OUT: -0.351

IN: What do we get for GCUGUCACCGGUGCUUGGUACGUUAUAUUCAGCCGGUCUGAUGAGUCUGUGUGCAGACGAAACAGC ?
OUT: 0.131

IN: What do we get for GCUGUCACCGGUGCUUGGUACGUUAUAUUCAGCCGGUCUGAUGAGUCUUGUGAAAGACGAAACAGC ?
OUT: 0.243

IN: What do we get for GCUGUCACCGGUGCUUGGUACGUUAUAUUCAGCCGGUCUGAUGAGUCUGAGUGAAGACGAAACAGC ?
OUT: 0.443

IN: What do we get for GCUGUCACCGGUGCUUGGUACGUUAUAUUCAGCCGGUCUGAUGAGUCUGUACACAGACGAAACAGC ?
OUT: 0.311

IN: What do we get for GCUGUCACCGGUGCUUGGUACGUUAUAUUCAGCCGGUCUGAUGAGUCUUUAAGAAGACGAAACAGC ?
OUT: 0.272

IN: What do we get for GCUGUCACCGGUGCUUGGUACGUUAUAUUCAGCCGGUCUGAUGAGUCUGUGCCGAGACGAAACAGC ?
OUT: 0.702

IN: What do we get for GCUGUCACCGGUGCUUGGUACGUUAUAUUCAGCCGGUCUGAUGAGUCUUGCGAGAGACGAAACAGC ?
OUT: -0.231

IN: What do we get for GCUGUCACCGGUGCUUGGUACGUUAUAUUCAGCCGGUCUGAUGAGUCUAAUAAGAGACGAAACAGC ?
OUT: 0.323

IN: What do we get for GCUGUCACCGGUGCUUGGUACGUUAUAUUCAGCCGGUCUGAUGAGUCUAUACAAAGACGAAACAGC ?
OUT: 0.215

IN: What do we get for GCUGUCACCGGUGCUUGGUACGUUAUAUUCAGCCGGUCUGAUGAGUCUUAUGCUAGACGAAACAGC ?
OUT: 0.129

IN: What do we get for GCUGUCACCGGUGCUUGGUACGUUAUAUUCAGCCGGUCUGAUGAGUCUGGUAAUAGACGAAACAGC ?
OUT: 0.504

IN: What do we get for GCUGUCACCGGUGCUUGGUACGUUAUAUUCAGCCGGUCUGAUGAGUCUUAUAGAAGACGAAACAGC ?
OUT: 0.417

IN: What do we get for GCUGUCACCGGUGCUUGGUACGUUAUAUUCAGCCGGUCUGAUGAGUCUUGAAUGAGACGAAACAGC ?
OUT: 0.267

IN: What do we get for GCUGUCACCGGUGCUUGGUACGUUAUAUUCAGCCGGUCUGAUGAGUCUUUUUACAGACGAAACAGC ?
OUT: 0.507

IN: What do we get for GCUGUCACCGGUGCUUGGUACGUUAUAUUCAGCCGGUCUGAUGAGUCUGGGAGGAGACGAAACAGC ?
OUT: 0.269
